Test system: MDA-MB-231 breast
runDescription: NCI tumour cell line growth inhibition, 48 h
For each record, write down the corresponding TGI.

Task: # lookup: TGI of CCO[C@@]12CCC3CC4CC[C@@](OCC)(O1)C4C32 (stereo partly drawn)
Output: > 100 µM

Task: # repeat for c1ccc(C2=NN=C3C(c4ccccc4)=Nc4ccccc4N3C2)cc1
Output: > 100 µM

Task: # repeat for C=CCc1oc(C)nc1CCCC
Output: > 100 µM

----------
For each record, write down the corresponding TGI.
System: NCI-H522 lung
runDescription: NCI tumour cell line growth inhibition, 48 h

Task: NCI-H522 lung / TGI / CCN(CC)/[N+]([O-])=N/OCOC : value?
Output: > 100 µM

Task: # repeat for COc1cc2c3c(n(CCN4CCOCC4)c(=O)c2cc1OC)-c1ccccc1C3=O
Output: > 100 µM

Task: # repeat for CNC(=O)CCCNC(=O)CCCCC(=O)N(C)C
Output: > 100 µM

Task: # repeat for O=[N+]([O-])c1cccc(-c2cn3c(n2)Cc2ccccc2C3)c1
Output: > 100 µM

Task: # repeat for CCCCCCc1cc2cc(-c3cn4c(n3)sc3ccccc34)c(=O)oc2cc1O
Output: > 100 µM

Task: # repeat for CC(C)(O)CCc1cccc(C(=O)c2cnn(-c3ccc(F)cc3)c2N)c1
Output: > 25 µM

----------
Tested on: U251 CNS
runDescription: NCI tumour cell line growth inhibition, 48 h
For each record, write down the corresponding TGI.

Task: # lookup: TGI of Cc1ccc(NC(=S)C#N)c(C)c1
Output: > 100 µM

Task: # repeat for CC(C)OC(=O)C1(C(C)C)CCc2ccc(C(=O)CCC(=O)O)cc21 (centres undefined)
Output: > 100 µM

Task: # repeat for CC1=NN(C(=O)CC(=O)NC(=O)/C=C\c2ccccc2)C(=O)C1N=Nc1ccc([N+](=O)[O-])cc1 (centres undefined)
Output: > 100 µM

Task: # repeat for Cc1c(NC(=O)CSC(=S)N(C)C)c(=O)n(-c2ccccc2)n1C
Output: > 100 µM

Task: # repeat for c1cc(C2CCCCC2)ccc1-c1cnc2nonc2n1
Output: 2.44 µM

Task: # repeat for C=CCSC1=N/C(=C\c2ccc(OC)cc2)C(=O)N1CC=C
Output: > 100 µM

Task: # repeat for Cc1ccc2c(c1)C=CC1(O2)N(c2ccccc2)C(=S)OC1(C)C (centres undefined)
Output: > 100 µM

Task: # repeat for CCCCCCCCCC(=O)NC(CCC(=O)N(CCNC(=O)c1nc(-c2ccccc2)oc1-c1ccccc1)Cc1ccccc1)C(=O)O (centres undefined)
Output: 35.8 µM

Task: # repeat for Cc1ccc(C(C)C)c(OCC(=O)N/N=C/c2c[nH]c3ccc(Br)cc23)c1
Output: 11.1 µM

Task: # repeat for COc1cc(NCCC(=O)O)c2ncccc2c1
Output: > 100 µM

Task: # repeat for O=c1[nH]nc(-c2ccccc2)n1-c1cccc([N+](=O)[O-])c1
Output: > 100 µM

Task: # repeat for Cc1cc2c3c([n+](C)c4ccc(F)cc4c3c1)-c1cc(F)ccc1N2C
Output: > 100 µM

Task: # repeat for COc1cc2c3c(n(CCN4CCOCC4)c(=O)c2cc1OC)-c1ccccc1C3=O
Output: > 100 µM

Task: # repeat for COC(=O)c1c2c(c(C)[n+]([O-])c1C)C(=O)C(NCc1ccc(F)cc1)=CC2=O
Output: 5.14 µM

----------
System: RXF 393 renal
runDescription: NCI tumour cell line growth inhibition, 48 h
valueKind: TGI

Task: # lookup: TGI of Cc1cccc(Nc2nc3ccccc3nc2NS(=O)(=O)c2ccccc2)c1
Output: > 100 µM

Task: # repeat for CN(C)c1cccc(OC(=O)NCCCl)c1
Output: > 100 µM

Task: # repeat for O=C1c2ccn(CCCNC(CO)(CO)CO)c2C(=O)c2c1c(O)c1ccccc1c2O
Output: > 61 µM

Task: # repeat for CC(=O)OC1CC(OC2C(O)CC(OC3C(O)CC(OC4CCC5(C)C(CCC6C5CCC5(C)C(C7=CC(=O)OC7)CCC65O)C4)OC3C)OC2C)OC(C)C1OC1OC(CO)C(O)C(O)C1O (stereo not given)
Output: 0.101 µM

Task: # repeat for CO/C=C1\OC(=O)C=C1OC
Output: > 100 µM

Task: # repeat for O=C(NCc1ccco1)C1CCN(S(=O)(=O)c2ccc(Cl)cc2)CC1
Output: > 100 µM

Task: # repeat for CC1=NN(C(=O)CC(=O)NC(=O)/C=C\c2ccccc2)C(=O)C1N=Nc1ccc([N+](=O)[O-])cc1 (stereo not given)
Output: > 100 µM

Task: # repeat for CNn1c(-c2ccc(C)cc2)n[nH]c1=O
Output: > 100 µM

Task: # repeat for COC(=O)[C@]12C3=C(O)C(=O)C[C@H]1OC[C@H]2C=CC3
Output: > 100 µM

Task: # repeat for O=C1C(Cl)=C(Cl)C(=O)N1c1cccc(C(F)(F)F)c1
Output: 70 µM

Task: # repeat for CSCC(CO)NC(=O)/C=C/c1c(C)[nH]c(=O)[nH]c1=O (stereo not given)
Output: > 875 µM

Task: # repeat for Cc1ccc(NC(=S)C#N)c(C)c1
Output: > 100 µM

Task: # repeat for NNC(=O)CCc1ccc2ccc3ccccc3c2c1
Output: > 100 µM

Task: # repeat for CCOC(=O)C(=O)Nc1c(C)cccc1C(C)(C)C
Output: > 100 µM

Task: # repeat for CC(=O)O[C@H]1CC[C@H]2[C@@H]3CCC4=C/C(=N/OCCN(C)C)CC[C@]4(C)[C@H]3CC[C@]12C
Output: 27.8 µM

Task: # repeat for CN1C(=O)[C@H](c2c[nH]c3ccccc23)[C@H](c2c[nH]c3ccccc23)C1=O
Output: > 90.6 µM

Task: # repeat for O=C1C(c2c(O)[nH]c3ccc(Cl)cc23)=Nc2ccccc21
Output: 7.11 µM

Task: # repeat for COc1ccc2nc3n(c2c1)C(c1c(F)cccc1F)SC3 (stereo not given)
Output: > 100 µM

Task: # repeat for Cc1ccc(N=Nc2c(O)ccc3n[nH]nc23)cc1
Output: 82.1 µM

Task: # repeat for COC(=O)[C@@H](NC(=O)[C@H](N)Cc1ccc(N(CCCl)CCCl)cc1)C(C)C
Output: 55.5 µM

Task: # repeat for C=CCC(N[C@H](CO)c1ccccc1)c1ccccn1 (stereo not given in full)
Output: > 100 µM

Task: # repeat for C[C@]12Cc3conc3C(O)=C1CC[C@@H]1C2CC[C@@]2(C)C1CC[C@]2(C)O (stereo not given in full)
Output: 44 µM

Task: # repeat for CCOC(=O)/C(C#N)=C\Sc1ccccc1
Output: 35.1 µM

Task: # repeat for COc1ccc2cc(CN3CCC(C4CCN(Cc5ccc6cc(OC)ccc6c5)CC4)CC3)ccc2c1
Output: 11.8 µM

Task: # repeat for Cc1ccc(C)c(NC(=O)C(=O)C2C(=O)N(c3ccccc3)N=C2N)c1 (stereo not given)
Output: > 100 µM

----------
System: M14 melanoma
runDescription: NCI tumour cell line growth inhibition, 48 h
valueKind: TGI

Task: # lookup: TGI of Nn1c(-c2cccc(Cl)c2)nc2ccccc2c1=O
Output: > 100 µM

Task: # repeat for O=C1NC2C3CC(OCc4ccccc4)(OCc4ccccc4)C2OC3O1 (stereo unspecified)
Output: > 50 µM

Task: # repeat for C[C@]12Cc3conc3C(O)=C1CC[C@@H]1C2CC[C@@]2(C)C1CC[C@]2(C)O (stereo partly specified)
Output: 36.2 µM

Task: # repeat for COC(=O)[C@@H](NC(=O)[C@H](N)Cc1ccc(N(CCCl)CCCl)cc1)C(C)C
Output: 49.5 µM

Task: # repeat for O=c1cc(-c2ccccc2)oc2cc(OCCCCCN3CCOCC3)cc(O)c12
Output: > 100 µM

Task: # repeat for CC(C)=CCC/C(C)=C/Cc1c(O)c(C)cc2c1[nH]c1cc(O)ccc12
Output: > 25 µM

----------
Tested on: NCI-H23 lung
runDescription: NCI tumour cell line growth inhibition, 48 h
For each record, write down the corresponding TGI.

Task: # lookup: TGI of Cn1cc(C2=C(c3cc[nH]c3)C(=O)NC2=O)c2ccccc21
Output: > 25 µM

Task: # repeat for COC(=O)CSc1nc2[nH]c(SC)c(C(N)=O)c2c(=O)n1-c1ccccc1
Output: > 10 µM

Task: # repeat for O=c1oc2ccccc2c(O)c1C(c1cccc(C(c2c(O)c3ccccc3oc2=O)c2c(O)c3ccccc3oc2=O)c1)c1c(O)c2ccccc2oc1=O
Output: > 100 µM

Task: # repeat for Cc1ccc(C)c(NC(=O)C(=O)C2C(=O)N(c3ccccc3)N=C2N)c1 (stereo unspecified)
Output: > 100 µM

Task: # repeat for NC(Cc1cccnn1)C(=O)O (stereo unspecified)
Output: > 100 µM

Task: # repeat for COc1ccc(CCc2ccc3c(c2)OCO3)cc1
Output: > 100 µM
